- assay overview: MTT assay for cell viability
- Type: cell-based, murine
- measurement conditions: mouse, B16F10 melanoma cells, B16F10, 100 µM, MTT, 72 h; read-out: % Viability ± SE
reported endpoint: viability at 72 h, 100 µM

Quote viability at 72 h, 100 µM reported for O=C(C=Cc1ccc(Cl)cc1)NCc1cn(CC(=O)Nc2ccc(Br)cc2)nn1 please.
> 80%

---

DPPH radical scavenging % Inhibition at 200 µM for assorted compounds
- assay overview: DPPH free radical-scavenging assay
- measurement conditions: 200 µM compound, DPPH 110 µM, 30 min
Form field: result (number plus unit)

* COc1ccc(NC(=O)Cn2cc(CNC(=O)C=Cc3ccc(Cl)cc3)nn2)cc1 | 55.28 ± 0.16%
* COc1ccc(C=CC(=O)NCc2cn(CC(=O)Nc3ccc(Cl)cc3)nn2)cc1 | 68.64 ± 7.33%
* O=C(C=Cc1ccc(Cl)cc1)NCc1cn(CC(=O)Nc2ccccc2)nn1 | 46.18 ± 1.54%
* CCc1ccc(NC(=O)Cn2cc(CNC(=O)C=Cc3ccccc3)nn2)cc1 | 47.36 ± 1.93%

Shifting focus to the compound that follows.
Return DPPH radical scavenging % Inhibition at 200 µM for the following compound: COc1ccc(C=CC(=O)NCc2cn(CC(=O)Nc3ccc(Br)cc3)nn2)cc1
57.09 ± 6.17%
